# subject_of_test: Recombinant human IL-2 (human, UniProt P60568 21-153)
# assay_comment: cell-based or functional assay
result_type: Fold EC50 shift of IL-2-induced proliferation, NK92 (huRαβγ) (fold)
# unit: fold | format: bare number

Dear colleague, please send me the reported Fold EC50 shift of IL-2-induced proliferation, NK92 (huRαβγ) for XPA.92.042 (antibody, V domains shown, Tested as purified full-length human IgG) VH: EVQLVQSGTEVKKAGDSLKISCKGSGYNFDTYWIGWVRQMPGRGLEWMGTIYPADSDTRYSPSFQGQVTMSADKSISTAYLQWGSLRASDTAMYYCARFSSSAYDIWGQGTMVTVSS VL: SYELTQPPSVSVSPGQTARITCSGDALPRKFAYWYQQKSGQAPVLVIYQDTKRPSGIPERFSGSSSGTTVTLTISDVQAEDDADYYCQSADRSDSYVFGAGTKLTVLG when you can. 52
